meta.source: patent US20120129872A1

Listed here are molecules together with their documented pKd.
- targetEntity: proMMP9(67-444;ΔFnII) (SEQ ID NO:5) (Homo sapiens, UniProt P14780, DEL216-390)
- Construct: start methionine (N)
- Sequence (P14780 with tags, fused parts or gaps DEL216-390): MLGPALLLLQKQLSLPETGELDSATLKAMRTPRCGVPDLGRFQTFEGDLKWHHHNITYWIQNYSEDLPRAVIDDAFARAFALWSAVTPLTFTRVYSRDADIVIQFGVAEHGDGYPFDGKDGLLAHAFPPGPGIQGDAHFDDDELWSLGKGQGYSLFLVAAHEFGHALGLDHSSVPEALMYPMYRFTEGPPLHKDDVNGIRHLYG
- measurementProtocol: ThermoFluor binding assay with proMMP9(67-444;ΔFnII)
The quantity pKd is defined as the negative base-10 logarithm of the molar concentration.

COc1ccc(C(N)=O)cc1Nc1nc(-c2ccc3c(c2)ncn3C)cs1; 6.00
CC(C)Oc1ccc(S(N)(=O)=O)cc1Nc1nc(-c2ccc3c(c2)nc(CO)n3C)cs1; 6.18
CC(C)Oc1ccc(S(N)(=O)=O)cc1Nc1nc(-c2ccc3occc3c2)cs1; 6.17
CC(C)Oc1ccc(S(N)(=O)=O)cc1Nc1nc(-c2ccc3sccc3c2)cs1; 5.92
CC(C)Oc1ccc(S(N)(=O)=O)cc1Nc1nc(-c2ccc3c(cnn3C)c2)cs1; 6.55
CCCn1cnc2cc(-c3csc(Nc4cc(S(N)(=O)=O)ccc4OC(C)C)n3)ccc21; 6.00
Cc1c(-c2csc(Nc3cc(C(N)=O)ccc3OC(C)C)n2)sc2ccccc12; 6.12

Shift focus to the following entry.
input: # input molecule: CCOc1ccc(S(N)(=O)=O)cc1Nc1nc(-n2c(C)nc3ccccc32)cs1 ; wanted: its pKd
output: 4.80

----------
Listed here are molecules together with their documented pKd.
- targetEntity: proMMP9(67-444;ΔFnII) (SEQ ID NO:5) (Homo sapiens, UniProt P14780, DEL216-390)
- Construct: start methionine (N)
- Sequence (P14780 with tags, fused parts or gaps DEL216-390): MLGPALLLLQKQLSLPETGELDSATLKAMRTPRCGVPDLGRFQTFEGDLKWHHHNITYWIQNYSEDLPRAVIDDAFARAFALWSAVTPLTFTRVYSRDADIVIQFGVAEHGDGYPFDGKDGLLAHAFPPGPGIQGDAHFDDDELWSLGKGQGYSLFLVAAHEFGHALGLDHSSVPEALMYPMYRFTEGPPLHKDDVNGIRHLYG
- measurementProtocol: ThermoFluor binding assay with proMMP9(67-444;ΔFnII)
The quantity pKd is defined as the negative base-10 logarithm of the molar concentration.

CCCn1cnc2ccc(-c3csc(Nc4cc(S(N)(=O)=O)ccc4OC(C)C)n3)cc21 [Example 19]; 6.08
CC(C)Oc1ccc(C(N)=O)cc1Nc1nc(-c2ccc3c(c2)ncn3C)cs1 [Example 8]; 6.48

input: # input molecule: Cc1ccn2c(-c3csc(Nc4cc(C(N)=O)ccc4OC(C)C)n3)c(C)nc2c1 [Example 7] ; wanted: its pKd
output: 5.02

----------
- targetEntity: full-length proMMP9(1-707) (SEQ ID NO:1), activation by catalytic MMP3 (Homo sapiens, UniProt P14780, R574P)
- Construct: made in house; host or cells: HEK293 (transient, secreted)
- measurementProtocol: ProMMP9/MMP3 DQ Gelatin Activation Assay
- Assay type: biochemical
- measurementParameters: read-out: ProMMP9/MMP3 DQ gel Activation Assay, IC50
quantity: IC50 (µM)
Number only, in µM; omit the unit.

input: # input molecule: COc1ccc([N+](=O)[O-])cc1Nc1nc(-c2cnc3ccccn23)cs1 ; wanted: its IC50
output: 5
